As a worked illustration, we turn to EC50 data collected for N-formyl peptide receptor 2 (Homo sapiens).
# output: bare number, implied unit nM

Worked examples follow.
[
  {
    "compound": "COc1cc(F)c(-n2cc(-c3nccs3)nc2NC(=O)c2ccc(OC(F)F)cc2)c(F)c1",
    "unit": "nM",
    "data.value": 1000
  },
  {
    "compound": "COc1ccc(-n2cc(-c3ccc(F)cc3F)nc2NC(=O)c2ccc(OC(F)F)cc2)cc1",
    "unit": "nM",
    "data.value": 76
  },
  {
    "compound": "COc1cc(F)c(-n2cc(C(=O)N3CCCC(O)C3)nc2NC(=O)c2ccc(OC(F)F)cc2)c(F)c1 (centres undefined)",
    "unit": "nM",
    "data.value": 2900
  }
]

We now examine a further compound.
(Q) // returns reported EC50 for input `COc1cc(F)c(-n2cc(-c3ccc(C)cc3)nc2NC(=O)c2ccc(OC(F)F)cc2)c(F)c1`
(A) 130
